# Tested on: HepG2 (GPC3 positive) cells
# assayComment: In vitro cytotoxicity in GPC3 positive HepG2 cells (CellTiter-Glo 2.0, 3 days)
# Type: cell-based
# experimentalContext: Homo sapiens, 72 h
# Method: Anti-GPC3 ADCs were prepared via conjugation of GPC3 clone 1 mAb containing non-natural amino acid pAF with each of compounds 12, 14, 16 and 18. The corresponding ADCs (hereinafter, anti-GPC3-12, anti-GPC3-14, anti-GPC3-16 and anti-GPC3-18 respectively) and small molecule duocarmycin analogs (compounds 15 and 17) were evaluated for cytotoxicity. […] The relative viability was calculated as a percentage of untreated cells. […]
pIC50: −log10 of the molar value.

{"compound": "COc1cc2cc(C(=O)N3C[C@@H](CCl)c4c3cc(O)c3[nH]c(C(=O)N5CCc6ccncc65)cc43)[nH]c2c(OC)c1OC [Compound 15]", "pIC50": 9.39}
{"compound": "COc1cc2cc(C(=O)N3C[C@@H](CCl)c4c3cc(O)c3[nH]c(C(=O)N5CCc6cc(OCCN7CCOCC7)ccc65)cc43)[nH]c2c(OC)c1OC [Compound 17]", "pIC50": 9.66}

----------
# System: 786-O (CD70 positive) cells
# assayComment: In vitro cytotoxicity in CD70 positive 786-O cells (CellTiter-Glo 2.0, 4 days)
# Format: cell-based
# experimentalContext: Homo sapiens, 786-0, 96 h; 786-O (CD70 Positive), 4 days

{"compound": "COc1cc2cc(C(=O)N3C[C@@H](CCl)c4c3cc(O)c3[nH]c(C(=O)N5CCc6ccccc65)cc43)[nH]c2c(OC)c1OC [Compound 4]", "IC50": "0.0089 nM"}
{"compound": "COc1cc2cc(C(=O)N3C[C@@H](CCl)c4c3cc(O)c3[nH]c(C(=O)N5CCc6cc(OCCN7CCOCC7)ccc65)cc43)[nH]c2c(OC)c1OC [Compound 17]", "IC50": "0.0179 nM"}
{"compound": "COc1cc2cc(C(=O)N3C[C@@H](CCl)c4c3cc(O)c3ccccc43)[nH]c2c(OC)c1OC [Compound 38, reference compound]", "IC50": "0.561 nM"}
{"compound": "COc1cc2cc(C(=O)N3C[C@@H](CCl)c4c3cc(O)c3[nH]c(C(=O)N5CCc6ccncc65)cc43)[nH]c2c(OC)c1OC [Compound 15]", "IC50": "0.0626 nM"}
{"compound": "COc1cc2c(cc1OC)N(C(=O)c1cc3c4c(cc(O)c3[nH]1)N(C(=O)c1cc3cc(OC)c(OC)c(OC)c3[nH]1)C[C@H]4CCl)CC2 [Compound 13]", "IC50": "0.0166 nM"}

----------
# System: NCI-H929 (CD70 negative) cells
# assayComment: In vitro cytotoxicity in CD70 negative NCI-H929 cells (CellTiter-Glo 2.0, 4 days)
# Format: cell-based
# experimentalContext: Homo sapiens, 96 h
# Experimental: Small molecule duocarmycin analogs (compounds 4, 13, 15, 17 and 38) and anti-CD70 ADCs (anti-CD70-12, anti-CD70-14, anti-CD70-16 and anti-CD70-18) were evaluated for cytotoxicity. […] At the end of incubation, CellTiter-Glo2.0 Reagent (Promega, Madison, WI) was added to the room temperature equilibrated plates and luminescence was measured in a SpectraMax M5E plate reader. The relative viability was calculated as a percentage of untreated cells. […]
pIC50: −log10 of the molar value.

{"molecule": "COc1cc2cc(C(=O)N3C[C@@H](CCl)c4c3cc(O)c3[nH]c(C(=O)N5CCc6ccncc65)cc43)[nH]c2c(OC)c1OC [Compound 15]", "targetUnderTest": "NCI-H929 (CD70 negative) cells", "pIC50": 8.04}
{"molecule": "COc1cc2c(cc1OC)N(C(=O)c1cc3c4c(cc(O)c3[nH]1)N(C(=O)c1cc3cc(OC)c(OC)c(OC)c3[nH]1)C[C@H]4CCl)CC2 [Compound 13]", "targetUnderTest": "NCI-H929 (CD70 negative) cells", "pIC50": 8.75}
{"molecule": "COc1cc2cc(C(=O)N3C[C@@H](CCl)c4c3cc(O)c3[nH]c(C(=O)N5CCc6cc(OCCN7CCOCC7)ccc65)cc43)[nH]c2c(OC)c1OC [Compound 17]", "targetUnderTest": "NCI-H929 (CD70 negative) cells", "pIC50": 8.59}
{"molecule": "COc1cc2cc(C(=O)N3C[C@@H](CCl)c4c3cc(O)c3ccccc43)[nH]c2c(OC)c1OC [Compound 38, reference compound]", "targetUnderTest": "NCI-H929 (CD70 negative) cells", "pIC50": 9.10}
{"molecule": "COc1cc2cc(C(=O)N3C[C@@H](CCl)c4c3cc(O)c3[nH]c(C(=O)N5CCc6ccccc65)cc43)[nH]c2c(OC)c1OC [Compound 4]", "targetUnderTest": "NCI-H929 (CD70 negative) cells", "pIC50": 9.09}
